The entries below are paired with their reported pIC50.
# System: A2780S
# procedure text: Antiproliferative activity against human A2780S cells after 48 to 72 hrs by MTT assay
# Format: functional, cell-based
pIC50: −log10 of the molar value.
observable: pIC50

[[record]]
compound = "CC(=O)O[C@H]1C(=O)[C@@]2(C)[C@H]([C@H](OC(=O)c3ccccc3)[C@]3(O)C[C@H](OC(=O)[C@H](O)[C@@H](NC(=O)c4ccccc4)c4ccccc4)C(C)=C1C3(C)C)[C@]1(OC(C)=O)CO[C@@H]1C[C@@H]2O [PACLITAXEL]"
target = "A2780S"
observable = "pIC50"
meas_value = 7.72

[[record]]
compound = "N#Cc1ccc(COc2cccc(/C=N/NC(=O)c3cc4c(cn3)[nH]c3ccccc34)c2)cc1"
target = "A2780S"
observable = "pIC50"
meas_value = 5.52

[[record]]
compound = "COc1cc2c(c(OC)c1OC)-c1ccc(OC)c(=O)cc1[C@@H](NC(C)=O)CC2 [COLCHICINE]"
target = "A2780S"
observable = "pIC50"
meas_value = 7.66

[[record]]
compound = "CC[C@]1(O)C[C@@H]2CN(CCc3c([nH]c4ccccc34)[C@@](C(=O)OC)(c3cc4c(cc3OC)N(C)[C@H]3[C@@](O)(C(=O)OC)[C@H](OC(C)=O)[C@]5(CC)C=CCN6CC[C@]43[C@@H]65)C2)C1 [VINBLASTINE]"
target = "A2780S"
observable = "pIC50"
meas_value = 7.80


Hello, the source for this data is ChEMBL document CHEMBL4152257, in case you need it.
